Cited source: paper PMC4046817

Target: Ss-LrpB (Sulfolobus solfataricus P2?) (UniProt Q7LX67)
Sequence: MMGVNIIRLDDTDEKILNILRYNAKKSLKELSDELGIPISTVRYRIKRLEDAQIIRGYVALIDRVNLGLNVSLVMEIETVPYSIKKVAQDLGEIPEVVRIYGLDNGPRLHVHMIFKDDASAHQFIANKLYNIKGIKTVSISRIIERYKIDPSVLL
Experiment: EMSA
Details: EMSA/footprinting in LrpB binding buffer (ref. 27); composition, pH and temperature not given
endpoint name: binding

* ATATGTATATTCAAGCCATTTAGATGAGATAAGGAAAAATAAAGAATTCTATGATATGATTGCAGAGATACTACAAAGGTATTACAAAAAAATAGGCATAGAGAATGTGAATCAGTTGATACTAACTACTATAAAATAGTTCGTATGTCGAACCTTTCTTTACCGAATTCATTATATATCC (double strand) [Sso6904 fragment] | no binding
* CGCATTAGAAGTAAAGAACGTAAATACTATGGCAGGAGTGTTATTACCAGCAAGGAACTTGGCATTAGCTAGGGAAATGGGGGCCGATGCGGTAGTTTCAGCTTGTCCTGGTTGTCACTATTCCTTATCTAGAACTCAATATTATCTGACTAAATACCCCAAATTAAGAGAAAAGACTAATATGTATTTAGAAAAAATGGGTACTAAGAATTATGATCTAAAGTTAATGCTAGTTCACGCTGTTGAATATATTTACAATA (double strand) [Sso1135 fragment] | binds
* AATCTTTCATTCCTCCTCTTATATGGATTATTACTGGTTTGTTTTCTTTTTCGGCTATTTGCAAAAATTTCTCCAGAACTTCTATTTGTTTTTTCCTAAGATCCTCGTCTTTTATCCAAAAGTAATCTAAACCGACTTCACTTATTATCTTCCCATACCTAGTTAATTCCAAACACTTATCAATCTCATTAACCTTATCCTTTACAAATTCTGGATG (double strand) [Sso0046 fragment] | no binding
* TGGAGAAGATGACGAAATGGTATTAAAGGAACATTCAATTACCTTATGTGATACAATAAAAAGGATGGGAGGGGATTGCGAGTTGCATATAATTCCGAAAATGAAGCACACACCTTTAGGGCAACAGTATCAAACAATTTGGAGTATAATTGAGGATTGGATAAAGAGGAATAGTTCTAGTTTTTAACCAGTTTGTGCCCAGTTCTCATACCTCATGAGTTCATTTCTACCCTTATCTTTAGCCACAATGTCTAGA (double strand) [Sso1433 fragment] | binds
